- assayedSystem: HLA-B*15:01
- test: IEDB peptide-MHC binding, purified MHC/competitive/fluorescence; filed as Kd, often an IC50 or EC50 that approximates it; bounds were set here for any values at or beyond the usual limits of such assays
- reportedConditions: source organism: Giardia lamblia ATCC 50803
readoutLabel: Kd (nM)
The reply should be a number in nM, with the unit left off.

Entry KSNRIPFLY : reported Kd = ?
212

----------
- assayedSystem: HLA-A*26:01
- test: IEDB peptide-MHC binding, purified MHC/competitive/radioactivity; filed as Kd, often an IC50 or EC50 that approximates it; bounds were set here for any values at or beyond the usual limits of such assays
- reportedConditions: source organism: Dengue virus 3 Singapore/8120/1995
readoutLabel: Kd (nM)
The reply should be a number in nM, with the unit left off.

Write down the reported Kd of HMIAGVLFTF , test system: HLA-A*26:01.
1160

----------
- assayedSystem: HLA-B*15:42
- test: IEDB peptide-MHC binding, purified MHC/competitive/fluorescence; filed as Kd, often an IC50 or EC50 that approximates it; bounds were set here for any values at or beyond the usual limits of such assays
- reportedConditions: source organism: Bacillus anthracis str. A0488
readoutLabel: Kd

Write down the reported Kd of RFFKHFMSL , test system: HLA-B*15:42.
≥ 5 µM

----------
- assayedSystem: HLA-A*03:01
- test: IEDB peptide-MHC binding, purified MHC/competitive/radioactivity; filed as Kd, often an IC50 or EC50 that approximates it; bounds were set here for any values at or beyond the usual limits of such assays
- reportedConditions: source organism: Mammarenavirus juninense
readoutLabel: pKd
Remember the convention: pKd equals -log10 of concentration in molar.

Entry AVAKCNLNH : reported pKd = ?
7.07

----------
# Kd listing for each entry below
- assayedSystem: HLA-B*44:02
- test: IEDB peptide-MHC binding, purified MHC/direct/fluorescence; filed as Kd, often an IC50 or EC50 that approximates it; bounds were set here for any values at or beyond the usual limits of such assays
- reportedConditions: source organism: Brucella abortus

querySequence | Kd
KLYERNTAF | ≥ 20 µM

Query sequence follows.
Entry GRKTPLLCF : reported Kd = ?
≥ 20 µM

----------
- assayedSystem: HLA-B*58:01
- test: IEDB peptide-MHC binding, purified MHC/direct/fluorescence; filed as Kd, often an IC50 or EC50 that approximates it; bounds were set here for any values at or beyond the usual limits of such assays
- reportedConditions: source organism: Marburg virus - Musoke, Kenya, 1980
readoutLabel: Kd (nM)
The reply should be a number in nM, with the unit left off.

Write down the reported Kd of ISDPLTSGL , test system: HLA-B*58:01.
415

----------
- assayedSystem: HLA-B*18:01
- test: IEDB peptide-MHC binding, purified MHC/direct/fluorescence; filed as Kd, often an IC50 or EC50 that approximates it; bounds were set here for any values at or beyond the usual limits of such assays
- reportedConditions: source organism: Reston ebolavirus - Reston
readoutLabel: Kd

Entry SKLRALLTL : reported Kd = ?
≥ 20 µM

----------
- assayedSystem: HLA-B*35:01
- test: IEDB peptide-MHC binding, purified MHC/competitive/fluorescence; filed as Kd, often an IC50 or EC50 that approximates it; bounds were set here for any values at or beyond the usual limits of such assays
- reportedConditions: source organism: Mycobacterium leprae
readoutLabel: Kd

Entry TVGYMYIMK : reported Kd = ?
≥ 20 µM

----------
- assayedSystem: HLA-B*27:05
- test: IEDB peptide-MHC binding, purified MHC/direct/fluorescence; filed as Kd, often an IC50 or EC50 that approximates it; bounds were set here for any values at or beyond the usual limits of such assays
- reportedConditions: source organism: Pseudomonas aeruginosa
readoutLabel: Kd

Entry DLPPAIAAE : reported Kd = ?
≥ 20 µM

----------
- assayedSystem: HLA-A*30:02
- test: IEDB peptide-MHC binding, purified MHC/competitive/radioactivity; filed as Kd, often an IC50 or EC50 that approximates it; bounds were set here for any values at or beyond the usual limits of such assays
- reportedConditions: source organism: Dengue virus 3 Sri Lanka/1266/2000
readoutLabel: Kd

Entry LIVSGIFPY : reported Kd = ?
≥ 76.9 µM

----------
- assayedSystem: HLA-A*30:02
- test: IEDB peptide-MHC binding, purified MHC/competitive/radioactivity; filed as Kd, often an IC50 or EC50 that approximates it; bounds were set here for any values at or beyond the usual limits of such assays
- reportedConditions: source organism: Influenza A virus (A/Ann Arbor/6/1960(H2N2))
readoutLabel: pKd
Remember the convention: pKd equals -log10 of concentration in molar.

Write down the reported pKd of RQEMASRGLW , test system: HLA-A*30:02.
5.36

----------
- assayedSystem: HLA-A*26:02
- test: IEDB peptide-MHC binding, purified MHC/direct/fluorescence; filed as Kd, often an IC50 or EC50 that approximates it; bounds were set here for any values at or beyond the usual limits of such assays
- reportedConditions: source organism: Vibrio vulnificus YJ016
pKd: −log10 of the molar value.
readoutLabel: pKd

Entry KRFYQTVGF : reported pKd = ?
≤ 4.70

----------
- assayedSystem: HLA-B*51:01
- test: IEDB peptide-MHC binding, purified MHC/competitive/fluorescence; filed as Kd, often an IC50 or EC50 that approximates it; bounds were set here for any values at or beyond the usual limits of such assays
- reportedConditions: source organism: Reston ebolavirus - Reston (1989)
readoutLabel: Kd

Entry FSDLCNFLI : reported Kd = ?
≥ 20 µM

----------
- assayedSystem: HLA-B*48:01
- test: IEDB peptide-MHC binding, purified MHC/competitive/fluorescence; filed as Kd, often an IC50 or EC50 that approximates it; bounds were set here for any values at or beyond the usual limits of such assays
- reportedConditions: source organism: Orthomarburgvirus marburgense
pKd: −log10 of the molar value.
readoutLabel: pKd

Write down the reported pKd of GELRKAICL , test system: HLA-B*48:01.
≤ 4.70

----------
- assayedSystem: HLA-A*11:01
- test: IEDB peptide-MHC binding, purified MHC/direct/fluorescence; filed as Kd, often an IC50 or EC50 that approximates it; bounds were set here for any values at or beyond the usual limits of such assays
- reportedConditions: source organism: Mycobacterium tuberculosis
pKd: −log10 of the molar value.
readoutLabel: pKd

querySequence | assayedSystem | pKd
QVFKGVVIR | HLA-A*11:01 | 6.16
SPRSRNRSF | HLA-A*11:01 | ≤ 4.70
APAKKAAPA | HLA-A*11:01 | ≤ 4.70

Entry LPAEVRAAF : reported pKd = ?
≤ 4.70

----------
- assayedSystem: HLA-B*27:03
- test: IEDB peptide-MHC binding, purified MHC/competitive/fluorescence; filed as Kd, often an IC50 or EC50 that approximates it; bounds were set here for any values at or beyond the usual limits of such assays
- reportedConditions: source organism: Orthohantavirus sinnombreense
pKd: −log10 of the molar value.
readoutLabel: pKd

Entry GSFRKICGF : reported pKd = ?
≤ 4.70

----------
- assayedSystem: HLA-A*02:12
- test: IEDB peptide-MHC binding, purified MHC/direct/fluorescence; filed as Kd, often an IC50 or EC50 that approximates it; bounds were set here for any values at or beyond the usual limits of such assays
- reportedConditions: source organism: Zaire ebolavirus
readoutLabel: Kd

Entry SKLRALLTL : reported Kd = ?
≥ 20 µM

----------
- assayedSystem: HLA-B*53:01
- test: IEDB peptide-MHC binding, purified MHC/competitive/radioactivity; filed as Kd, often an IC50 or EC50 that approximates it; bounds were set here for any values at or beyond the usual limits of such assays
- reportedConditions: source organism: Mammarenavirus whitewaterense
readoutLabel: Kd

Entry NPTNISKCF : reported Kd = ?
0.0777 µM

----------
- assayedSystem: HLA-B*15:17
- test: IEDB peptide-MHC binding, purified MHC/competitive/fluorescence; filed as Kd, often an IC50 or EC50 that approximates it; bounds were set here for any values at or beyond the usual limits of such assays
- reportedConditions: source organism: Campylobacter jejuni subsp. jejuni NCTC 11168 = ATCC 700819
readoutLabel: Kd

Write down the reported Kd of LELAEITAE , test system: HLA-B*15:17.
≥ 20 µM

----------
- assayedSystem: HLA-B*27:05
- test: IEDB peptide-MHC binding, purified MHC/direct/fluorescence; filed as Kd, often an IC50 or EC50 that approximates it; bounds were set here for any values at or beyond the usual limits of such assays
- reportedConditions: source organism: Camelpox virus M-96
readoutLabel: Kd

Entry FENDIDEIL : reported Kd = ?
≥ 20 µM

----------
- assayedSystem: HLA-B*15:01
- test: IEDB peptide-MHC binding, purified MHC/direct/fluorescence; filed as Kd, often an IC50 or EC50 that approximates it; bounds were set here for any values at or beyond the usual limits of such assays
- reportedConditions: source organism: Influenza A virus (A/swine/Italy/809/1989(H3N2))
readoutLabel: Kd

Entry EEIRRIWRQ : reported Kd = ?
≥ 20 µM

meta.source: the Immune Epitope Database (IEDB)
